# experimentalTarget: NRAS Q61R (Homo sapiens, UniProt P01111+P62937, Q61R)
# Sequence (P01111 whole entry Q61R, one chain of several): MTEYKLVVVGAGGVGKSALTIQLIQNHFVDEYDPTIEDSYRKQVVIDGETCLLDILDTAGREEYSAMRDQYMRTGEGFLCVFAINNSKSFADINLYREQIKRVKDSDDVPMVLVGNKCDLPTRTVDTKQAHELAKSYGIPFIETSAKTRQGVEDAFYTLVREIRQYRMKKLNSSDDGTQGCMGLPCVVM
# assayNotes: Disruption of BRAF RBD interaction with Ras (FRET / MOA assay, with Cyclophilin A)
# Format: biochemical
# particulars: NRAS Q61R; read-out: NRAS Q61R FRET data IC50
quantityMeasured: IC50

Field: example entries. Status: answers known.
CCn1c(-c2cccnc2[C@H](C)OC)c2c3cc(ccc31)-c1csc(n1)C[C@H](NC(=O)[C@H](C(C)C)N(C)C(=O)N1CC[C@]13CCCN(C)C3)C(=O)N1CCC[C@H](N1)C(=O)OCC(C)(C)C2 [Example A442] = 1 to 10 µM
CCn1c(-c2cccnc2[C@H](C)OC)c2c3cc(ccc31)-c1csc(n1)C[C@H](NC(=O)[C@H](C(C)C)N(C)C(=O)N1CC3(C1)CS(=O)(=O)CCN3C)C(=O)N1CCC[C@H](N1)C(=O)OCC(C)(C)C2 [Example A482] = 1 to 10 µM
CCn1c(-c2cccnc2[C@H](C)OC)c2c3cc(ccc31)-c1csc(n1)C[C@H](NC(=O)[C@H](C(C)C)N(C)C(=O)N1CC(C)(OC)C1)C(=O)N1CCC[C@H](N1)C(=O)OCC(C)(C)C2 [Example A299] = 0.1 to 1 µM

Let us examine a further case.
Please look up its IC50: CCn1c(-c2cc(C3CCN(C)CC3)cnc2[C@H](C)OC)c2c3cc(ccc31)-c1cc(O)cc(c1)C[C@H](NC(=O)[C@H](C(C)C)N(C)C(=O)[C@@H]1OCC[C@@H]1c1ccccc1)C(=O)N1CCC[C@H](N1)C(=O)OCC(C)(C)C2 (atropisomer, axis not shown) [Example A577]
< 0.01 µM

====

# experimentalTarget: KRAS G13D (Homo sapiens, UniProt P01116+P62937, G13D)
# Sequence (P01116 1-169 isoform P01116-2 G13D limits assumed, one chain of several): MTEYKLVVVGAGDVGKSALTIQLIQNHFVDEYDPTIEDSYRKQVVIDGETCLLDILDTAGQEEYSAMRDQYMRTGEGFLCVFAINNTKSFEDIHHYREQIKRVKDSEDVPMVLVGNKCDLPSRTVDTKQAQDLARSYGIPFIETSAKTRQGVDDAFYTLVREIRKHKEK
# assayNotes: Disruption of BRAF RBD interaction with Ras (FRET / MOA assay, with Cyclophilin A)
# Assay type: biochemical
# particulars: KRAS G13D FRET data IC50, KRAS G13D
pIC50: −log10 of the molar value.
# key: entry, value: pIC50

Field: example entries. Status: answers known.
CCn1c(-c2cnccc2COC)c2c3cc(ccc31)-c1cc(O)cc(c1)C[C@H](NC(=O)[C@H](C(C)C)N(C)C(=O)[C@H]1CCCO1)C(=O)N1CCC[C@H](N1)C(=O)OCC(C)(C)C2 = 6.00 to 7.00
CCn1c(-c2cccnc2[C@H](C)OC)c2c3cc(ccc31)-c1cc(O)cc(c1)C[C@H](NC(=O)[C@H](C(C)C)N(C)C(=O)C1CCN3CCOCC13)C(=O)N1CCC[C@H](N1)C(=O)OCC(C)(C)C2 (stereo partly drawn) = 6.00 to 7.00
CCn1c(-c2cccnc2[C@H](C)OC)c2c3cc(ccc31)-c1cc(O)cc(c1)C[C@H](NC(=O)[C@H](C(C)C)N(C)C(=O)C1CCNCC1)C(=O)N1CCC[C@H](N1)C(=O)OCC(C)(C)C2 = 6.00 to 7.00
CCn1c(-c2cnccc2COC)c2c3cc(ccc31)-c1cc(O)cc(c1)C[C@H](NC(=O)[C@H](C(C)C)N(C)C(=O)[C@H]1CCN(CCO)C1)C(=O)N1CCC[C@H](N1)C(=O)OCC(C)(C)C2 = 7.00 to 8.00
CCn1c(-c2cccnc2[C@H](C)OC)c2c3cc(ccc31)-c1csc(n1)C[C@H](NC(=O)[C@H](C(C)C)N(C)C(=O)N1CC(N)(C#N)C1)C(=O)N1CCC[C@H](N1)C(=O)OCC(C)(C)C2 = 5.00 to 6.00

Please look up its pIC50: CCn1c(-c2ccccc2CCOC)c2c3cc(ccc31)-c1cc(O)cc(c1)C[C@H](NC(=O)[C@H](C(C)C)N(C)C(=O)CCN)C(=O)N1CCC[C@H](N1)C(=O)OCC(C)(C)C2
5.00 to 6.00

Please look up its pIC50: CCn1c(-c2cnccc2COC)c2c3cc(ccc31)-c1cc(O)cc(c1)C[C@H](NC(=O)[C@H](C(C)C)N(C)C(=O)[C@H]1CCN(C(=O)OC)C1)C(=O)N1CCC[C@H](N1)C(=O)OCC(C)(C)C2
6.00 to 7.00

Please look up its pIC50: CCn1c(-c2cnccc2COC)c2c3cc(ccc31)-c1cc(O)cc(c1)C[C@H](NC(=O)[C@H](C(C)C)N(C)S(C)(=O)=O)C(=O)N1CCC[C@H](N1)C(=O)OCC(C)(C)C2
5.00 to 6.00

Please look up its pIC50: CCn1c(-c2cnccc2COC)c2c3cc(ccc31)-c1cc(O)cc(c1)C[C@H](NC(=O)[C@H](C(C)C)N(C)C(=O)[C@H]1CCN(C(=O)N(C)C)C1)C(=O)N1CCC[C@H](N1)C(=O)OCC(C)(C)C2
5.00 to 6.00

====

# experimentalTarget: KRAS G13D (Homo sapiens, UniProt P01116+P62937, G13D)
# assayNotes: Disruption of BRAF RBD interaction with Ras (FRET / MOA assay, with Cyclophilin A)
# Type: biochemical
# particulars: KRAS G13D; read-out: KRAS G13D FRET data IC50
pIC50: −log10 of the molar value.
quantityMeasured: pIC50

CCn1c(-c2cnccc2COC)c2c3cc(ccc31)-c1cc(O)cc(c1)C[C@H](NC(=O)[C@H](C(C)C)N1COCC1=O)C(=O)N1CCC[C@H](N1)C(=O)OCC(C)(C)C2 [Example A102] = 6.00 to 7.00

Let us examine a further case.
Record lookup: for KRAS G13D (Homo sapiens, UniProt P01116+P62937, G13D), what pIC50 belongs to CCn1c(-c2cccnc2[C@H](C)OC)c2c3cc(ccc31)-c1csc(n1)C[C@H](NC(=O)[C@H](C(C)C)N(C)C(=O)N1CCN(C(=O)C3COC3)CC1)C(=O)N1CCC[C@H](N1)C(=O)OCC(C)(C)C2 (atropisomer, axis not shown) [Example A606] ?
6.00 to 7.00

====

# experimentalTarget: NRAS Q61R (Homo sapiens, UniProt P01111+P62937, Q61R)
# assayNotes: Ras-Raf disruption / FRET / MOA assay (BRAF RBD)
# Format: biochemical
# particulars: NRAS Q61R; read-out: NRAS Q61R FRET data IC50
quantityMeasured: IC50

Field: example entries. Status: answers known.
CCn1c(-c2cccnc2[C@H](C)OC)c2c3cc(ccc31)-c1cc(O)cc(c1)C[C@H](NC(=O)[C@H](C(C)C)N(C)C(=O)N1C[C@@H]3[C@H]1CCN3C(=O)[C@@H]1CN1)C(=O)N1CCC[C@H](N1)C(=O)OCC(C)(C)C2 (atropisomer, axis not shown) = 1000 to 10000 nM
CCn1c(-c2cccnc2[C@H](C)OC)c2c3cc(ccc31)-c1csc(n1)C[C@H](NC(=O)[C@H](C(C)C)N(C)C(=O)N(C)C1CN(C(=O)[C@H]3CN3)C1)C(=O)N1CCC[C@H](N1)C(=O)OCC(C)(C)C2 = 100 to 1000 nM
CCn1c(-c2cccnc2[C@H](C)OC)c2c3cc(ccc31)-c1csc(n1)C[C@H](NC(=O)[C@H](C(C)C)N(C)C(=O)N1CCN(C(=O)[C@@H]3CN3)C[C@H]1C)C(=O)N1CCC[C@H](N1)C(=O)OCC(C)(C)C2 = 10 to 100 nM
CCn1c(-c2cccnc2[C@H](C)OC)c2c3cc(ccc31)-c1cc(cc(C(F)F)c1)C[C@H](NC(=O)[C@H](C1CCCC1)N1CC[C@]3(CCN(C(=O)[C@@H]4N[C@@H]4C4CC4)C3)C1)C(=O)N1CCC[C@H](N1)C(=O)OCC(C)(C)C2 = 1000 to 10000 nM

Record lookup: for NRAS Q61R (Homo sapiens, UniProt P01111+P62937, Q61R), what IC50 belongs to CCn1c(-c2cccnc2[C@H](C)OC)c2c3cc(ccc31)-c1cc(O)cc(c1)C[C@H](NC(=O)[C@H](C(C)C)N(C)C(=O)[C@H]1CCCCN(C(=O)[C@H]3CN3)C1)C(=O)N1CCC[C@H](N1)C(=O)OCC(C)(C)C2 (atropisomer, axis not shown) ?
1000 to 10000 nM

Record lookup: for NRAS Q61R (Homo sapiens, UniProt P01111+P62937, Q61R), what IC50 belongs to CCn1c(-c2cccnc2[C@H](C)OC)c2c3cc(ccc31)-c1cc(O)cc(c1)C[C@H](NC(=O)[C@H](C(C)C)N(C)C(=O)[C@H]1CCN(C(=O)C3(C)CO3)C1)C(=O)N1CCC[C@H](N1)C(=O)OCC(C)(C)C2 (stereo partly drawn) ?
100 to 1000 nM

====

# experimentalTarget: KRAS G12C (Homo sapiens, UniProt P01116+P62937, G12C)
# Sequence (P01116 1-169 isoform P01116-2 G12C limits assumed): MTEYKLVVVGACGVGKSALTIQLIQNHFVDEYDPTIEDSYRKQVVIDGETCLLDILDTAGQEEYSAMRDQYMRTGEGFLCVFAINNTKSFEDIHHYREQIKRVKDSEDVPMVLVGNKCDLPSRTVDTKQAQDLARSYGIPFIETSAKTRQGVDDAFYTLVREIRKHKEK
# Sequence (P62937 whole entry): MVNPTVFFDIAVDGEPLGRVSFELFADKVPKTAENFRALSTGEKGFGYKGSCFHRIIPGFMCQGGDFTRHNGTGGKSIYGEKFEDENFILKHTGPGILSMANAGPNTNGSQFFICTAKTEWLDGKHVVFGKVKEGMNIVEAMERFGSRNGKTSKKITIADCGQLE
# assayNotes: Ras-Raf disruption / FRET / MOA assay (BRAF RBD)
# Type: biochemical
# particulars: KRAS G12C FRET data IC50, Ras-Raf disruption, with Cyclophilin A
pIC50: −log10 of the molar value.
# key: entry, value: pIC50

Field: example entries. Status: answers known.
CCn1c(-c2cccnc2[C@H](C)OC)c2c3cc(ccc31)-c1cc(O)cc(c1)C[C@H](NC(=O)[C@H](C(C)C)N(C)C(=O)[C@@H](C)N(C)C(=O)[C@H]1CN1)C(=O)N1CCC[C@H](N1)C(=O)OCC(C)(C)C2 [Example 114] = 7.00 to 8.00
CCn1c(-c2cccnc2[C@H](C)OC)c2c3cc(ccc31)-c1cc(O)cc(c1)C[C@H](NC(=O)[C@H](C(C)C)N(C)C(=O)CN(C)C(=O)[C@H]1CN1)C(=O)N1CCC[C@H](N1)C(=O)OCC(C)(C)C2 (single isomer, unassigned) [Example 42B] = 6.00 to 7.00
CCn1c(-c2cccnc2[C@H](C)OC)c2c3cc(ccc31)-c1cc(O)cc(c1)C[C@H](NC(=O)[C@H](C(C)C)N(C)C(=O)CN(C)C(=O)[C@@H]1CN1CCO)C(=O)N1CCC[C@H](N1)C(=O)OCC(C)(C)C2 (stereo partly shown) [Example 162] = > 8.00

Let us examine a further case.
Please look up its pIC50: CCn1c(-c2cccnc2[C@H](C)OC)c2c3cc(ccc31)-c1cc(O)cc(c1)C[C@H](NC(=O)[C@H](C(C)C)N(C)C(=O)CN(C)C(=O)[C@H]1N[C@@H]1C1CC1)C(=O)N1CCC[C@H](N1)C(=O)OCC(C)(C)C2 [Example 136]
7.00 to 8.00
